# System: T1, full-length human GIPR with an N-terminal FLAG tag (human, UniProt P48546 22-466)
# T1 sequence (looked up): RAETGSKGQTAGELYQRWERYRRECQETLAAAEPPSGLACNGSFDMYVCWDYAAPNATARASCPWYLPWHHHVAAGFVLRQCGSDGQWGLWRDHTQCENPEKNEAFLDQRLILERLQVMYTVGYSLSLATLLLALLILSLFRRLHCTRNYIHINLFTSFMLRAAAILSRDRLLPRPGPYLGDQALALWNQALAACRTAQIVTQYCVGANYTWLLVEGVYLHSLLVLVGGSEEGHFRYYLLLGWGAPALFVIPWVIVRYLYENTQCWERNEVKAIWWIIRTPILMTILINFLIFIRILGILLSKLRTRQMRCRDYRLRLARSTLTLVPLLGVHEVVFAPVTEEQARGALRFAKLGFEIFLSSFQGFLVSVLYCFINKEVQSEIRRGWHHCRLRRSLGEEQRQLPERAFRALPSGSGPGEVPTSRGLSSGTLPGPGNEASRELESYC
# Procedure Details: cell-based or functional assay
Non-standard residues stand in square brackets, D forms with d. Groups on a side chain read outwards from the residue. No end group written: not given here. *: point of attachment. C15 diacid = O=C(O)CCCCCCCCCCCCCC(=O)*; NMeY = CN[C@@H](Cc1ccc(O)cc1)C(=O)O; Aib = CC(C)(N)C(=O)O
Endpoint Label: Human GIPR cAMP, HEK293T EC50 (pM)
The response must be a number in pM with no trailing unit.

Per the records, this binder ( [NMeY][Aib]EGTFISDYSI[Aib]KDR[Aib]AQ[Aib]NFVNWLLAQRGGGGS-NH2 (not fully specified (residue 14)) [Compound 134] ) has Human GIPR cAMP, HEK293T EC50 equal to 0.4

Per the records, this binder ( [NMeY][Aib]EGTFISDYSIALDR[Aib]KQ[Aib]NFVNWLLAQSPSSGAPPPS-NH2 (not fully specified (residue 18, N-terminus)) [Compound 119] ) has Human GIPR cAMP, HEK293T EC50 equal to 0.5

Per the records, this binder ( [NMeY][Aib]EGTFISDYSIALDR[Aib]AQ[Aib]NFVNWLLAQKPSSGAPPPS-OH (not fully specified (residue 30)) [Compound 52] ) has Human GIPR cAMP, HEK293T EC50 equal to 0.3

Per the records, this binder ( [NMeY][Aib]EGTFISDYSIAK([GGEEE-C15 diacid])DR[Aib]AQ[Aib]NFVNWLLAQRPSSGAPPPS-NH2 [Compound 99] ) has Human GIPR cAMP, HEK293T EC50 equal to 0.2
